Reported Tmax is given for each of the following compounds.
# TEST SUMMARY: Tmax in Sprague-Dawley rat at 3 mg/kg, po by LC-MS/MS analysis
# Assay type: ADME, organism-based
# SETTINGS: in vivo
Enter your answer as a number in min; do not include the unit.

State its Tmax for this compound: CNC(=O)Nc1ccc2c(c1)CC[C@]21NC(=O)N(CC(=O)N2Cc3cc(F)ccc3OC[C@H]2C2CC2)C1=O 24.6

Report measured Tmax; entry is Cn1cc(-c2ccc3c(c2)CC[C@]32NC(=O)N(CC(=O)N3Cc4cc(F)ccc4OC[C@H]3C(F)(F)F)C2=O)cn1 49.8

Given the compound CNC(=O)Nc1ccc2c(c1)CC[C@@]21OC(=O)N(CC(=O)N2Cc3ccccc3CC[C@H]2C2CC2)C1=O , write its reported Tmax. 15

Values from ChEMBL document CHEMBL4321876
